Study target: PRMT5/MEP50 (Homo sapiens (Human))
Assay method text: PRMT5 Biochemical Assay (PRMT5/MEP50 enzyme assay on peptide substrate, 3H-SAM Flashplate)
Observable: IC50

Reported IC50 ( `O=C(NC[C@H](O)CN1CCc2ccccc2C1)Oc1ccccc1` ) = 1 to 10 µM

---

What pIC50 was measured for each of the following?
Study target: PRMT5/MEP50 (Homo sapiens (Human), UniProt O14744)
Sequence (O14744 other isoform, or with tags, fused parts or gaps): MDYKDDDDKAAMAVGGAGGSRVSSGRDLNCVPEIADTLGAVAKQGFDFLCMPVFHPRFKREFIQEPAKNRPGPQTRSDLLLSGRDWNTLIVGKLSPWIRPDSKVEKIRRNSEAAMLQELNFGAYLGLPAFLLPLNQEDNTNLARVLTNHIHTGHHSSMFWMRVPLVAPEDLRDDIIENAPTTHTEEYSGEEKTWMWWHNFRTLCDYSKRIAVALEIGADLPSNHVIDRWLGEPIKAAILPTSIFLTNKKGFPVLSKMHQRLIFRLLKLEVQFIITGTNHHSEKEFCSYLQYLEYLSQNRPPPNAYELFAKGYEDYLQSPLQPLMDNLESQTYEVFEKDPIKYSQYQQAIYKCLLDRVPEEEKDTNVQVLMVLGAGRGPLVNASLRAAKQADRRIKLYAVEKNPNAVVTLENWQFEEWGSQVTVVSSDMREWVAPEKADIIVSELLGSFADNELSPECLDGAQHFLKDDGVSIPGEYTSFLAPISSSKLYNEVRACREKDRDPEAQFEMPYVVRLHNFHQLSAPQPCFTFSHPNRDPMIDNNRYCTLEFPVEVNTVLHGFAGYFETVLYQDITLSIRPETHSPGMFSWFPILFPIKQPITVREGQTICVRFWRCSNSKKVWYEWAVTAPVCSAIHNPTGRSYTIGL
Sequence (Q9BQA1 other isoform, or with tags, fused parts or gaps partner): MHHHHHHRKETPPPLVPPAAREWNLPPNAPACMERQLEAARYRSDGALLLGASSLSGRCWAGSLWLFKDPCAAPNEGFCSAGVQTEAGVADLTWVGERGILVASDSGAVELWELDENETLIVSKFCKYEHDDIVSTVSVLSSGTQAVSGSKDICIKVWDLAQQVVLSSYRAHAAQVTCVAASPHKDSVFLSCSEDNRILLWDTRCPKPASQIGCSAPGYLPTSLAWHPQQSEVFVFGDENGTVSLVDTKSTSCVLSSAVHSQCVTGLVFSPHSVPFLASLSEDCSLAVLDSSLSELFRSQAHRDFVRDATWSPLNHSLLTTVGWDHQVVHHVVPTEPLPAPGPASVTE
Assay method text: PRMT5 Biochemical Assay (PRMT5/MEP50 enzyme assay on peptide substrate, 3H-SAM Flashplate)
Condition context: PRMT5/MEP50 biochemical assay; read-out: Biochemical IC50
pIC50: −log10 of the molar value.

Reported pIC50 ( `O=C(NC[C@H](O)CN1CCc2ccccc2C1)c1ccc2c(c1O)NCCC2` ) = 5.00 to 6.00

Reported pIC50 ( O=C(NCC(O)CN1CCc2ccccc2C1)c1cccc(C2CCOC2)c1 (stereo not drawn) ) = > 7.00

Reported pIC50 ( `CC(=O)N1CCC(Nc2cccc(C(=O)NC[C@H](O)CN3CCc4ccccc4C3)c2)CC1` ) = > 7.00

Take each entry in turn and give its pIC50.
1. O=C(NC[C@H](O)CN1CCc2ccccc2C1)c1cccc2c1OCCO2
2. O=C(NCC(O)CN1CCc2ccccc2C1)c1ccc(NC2CCOCC2)cc1 (stereo not drawn)
3. CN1CCC(Oc2cc(C(=O)NC[C@H](O)CN3CCc4ccccc4C3)ncn2)CC1
4. Cc1cc2ncc(C(=O)NC[C@H](O)CN3CCc4ccccc4C3)c(C)n2n1

> 7.00
> 7.00
> 7.00
6.00 to 7.00

Take each entry in turn and give its pIC50.
1. CS(=O)(=O)N1CCC(Nc2cc(C(=O)NC[C@H](O)CN3CCc4ccccc4C3)ccn2)CC1
2. CS(=O)(=O)N1CCC(Oc2cc(C(=O)NC[C@H](O)CN3CCc4ccccc4C3)ncn2)CC1
3. O=C(NC[C@H](O)CN1CCc2ccccc2C1)c1cc2ccccc2o1
4. O=C(NCC(O)CN1CCc2ccccc2C1)c1ccc2nccnc2c1 (stereo not drawn)
5. O=C(NC[C@H](O)CN1CCc2ccccc2C1)Nc1ccccc1

1: > 7.00; 2: > 7.00; 3: > 7.00; 4: 6.00 to 7.00; 5: 6.00 to 7.00

Take each entry in turn and give its pIC50.
1. CNC(=O)CNCc1cccc(C(=O)NCC(O)CN2CCc3ccccc3C2)c1 (stereo not drawn)
2. O=C(NCC(O)CN1CCc2ccccc2C1)c1cccc(CN2CCNCC2)c1 (stereo not drawn)
3. O=C(NC[C@H](O)CN1CCc2ccccc2C1)c1cc(NC2CCOC2)ncn1 (stereo partly drawn)
4. O=C(NCC(O)CN1CCc2ccccc2C1)c1cccc(NC2CCN(CC(F)(F)F)C2)c1 (stereo not drawn)

1. 6.00 to 7.00
2. > 7.00
3. > 7.00
4. > 7.00

Take each entry in turn and give its pIC50.
1. CN1CCC(Nc2cc(C(=O)NC[C@H](O)CN3CCc4ccccc4C3)ccn2)C1 (stereo partly drawn)
2. O=C(NCC(O)CN1CCc2ccccc2C1)c1ccc(OC2CCNC2)cc1 (stereo not drawn)

1: > 7.00; 2: > 7.00

---

What IC50 was measured for each of the following?
Study target: PRMT5/MEP50 (Homo sapiens (Human))
Assay method text: PRMT5 Biochemical Assay (PRMT5/MEP50 enzyme assay on peptide substrate, 3H-SAM Flashplate)
Condition context: PRMT5/MEP50 biochemical assay; read-out: Biochemical IC50
Text: S-adenosylmethionine (SAM), S-adenosylhomocysteine (SAH), bicine, KCl, Tween20, dimethylsulfoxide (DMSO), bovine skin gelatin (BSG), and Tris(2-carboxyethyl)phosphine hydrochloride solution (TCEP) were purchased from Sigma-Aldrich at the highest level of purity possible. ^3H-SAM was purchase from American Radiolabeled Chemicals with a specific activity of 80 Ci/mmol. 384-well streptavidin Flashplates were purchased from PerkinElmer. […]

GET /values?item= O=C(NC[C@@H](O)CN1CCc2ccccc2C1)c1cccc(NC2CCOCC2)c1 [Compound 43] &system= PRMT5/MEP50 (Homo sapiens (Human)) returns IC50: 101 to 1000 nM

GET /values?item= O=C(NC[C@H](O)CN1CCc2ccccc2C1)c1cccc2[nH]cnc12 [Compound 241] &system= PRMT5/MEP50 (Homo sapiens (Human)) returns IC50: < 100 nM

GET /values?item= O=C(NC[C@H](O)CN1CCc2ccccc2C1)c1ccc2c(c1)OCO2 [Compound 244] &system= PRMT5/MEP50 (Homo sapiens (Human)) returns IC50: < 100 nM

GET /values?item= O=C(NCC(O)CN1CCc2ccccc2C1)c1cccc(CO)c1 (stereo not drawn) [Compound 151] &system= PRMT5/MEP50 (Homo sapiens (Human)) returns IC50: 101 to 1000 nM

GET /values?item= O=C(NC[C@H](O)CN1CCc2ccccc2C1)c1cc(NC2CCN(CC(F)(F)F)C2)ncn1 (stereo partly drawn) [Compound 182] &system= PRMT5/MEP50 (Homo sapiens (Human)) returns IC50: < 100 nM

Take each entry in turn and give its IC50.
1. Cn1nccc1Nc1cc(C(=O)NC[C@H](O)CN2CCc3ccccc3C2)ccn1 [Compound 325]
2. O=C(NCC(O)CN1CCc2ccccc2C1)c1cncc(NC2CCOCC2)n1 (stereo not drawn) [Compound 75]

["< 100 nM", "101 to 1000 nM"]

Take each entry in turn and give its IC50.
1. Cc1ccc(NC2COC2)cc1C(=O)NCC(O)CN1CCc2ccccc2C1 (stereo not drawn) [Compound 97]
2. O=C(NC[C@H](O)CN1CCc2ccccc2C1)c1nccc2ccccc12 [Compound 272]

< 100 nM
< 100 nM

---

Tested on: Z-138 cell line
Assay method text: Z-138 Proliferation Assay (Cell Titer Glo, 5 days)
Type: cell-based
Condition context: Z-138 cells
From the text: RPMI/Glutamax medium, penicillin-streptomycin, heat inactivated fetal bovine serum were purchased from Life Technologies, Grand Island, N.Y., USA. V-bottom polypropylene 384-well plates were purchased from Greiner Bio-One, Monroe, N.C., USA. Cell culture 384-well white opaque plates were purchased from Perkin Elmer, Waltham, Mass., USA. […] SpectraMax M5 plate reader was purchased from Molecular Devices LLC, Sunnyvale, Calif., USA. […]
Observable: EC50

GET /values?item= CN1CCC(Oc2cccc(C(=O)NCC(O)CN3CCc4ccccc4C3)c2)C1 (stereo not shown) &system= Z-138 cell line returns EC50: 1 to 10 µM

---

Study target: PRMT5/MEP50 (Homo sapiens (Human))
Assay method text: PRMT5 Biochemical Assay (PRMT5/MEP50 enzyme assay on peptide substrate, 3H-SAM Flashplate)
Condition context: PRMT5/MEP50 biochemical assay; read-out: Biochemical IC50
pIC50: −log10 of the molar value.
What pIC50 was measured for each of the following?

Reported pIC50 ( O=C(NCC(O)CN1CCc2ccccc2C1)c1ccc(NC2CCOC2)cc1 (centres unmarked) [Compound 129] ) = > 7.00

Reported pIC50 ( CC1=NN(c2ccc(C(=O)NCC(O)CN3CCc4ccccc4C3)cc2)C(=O)C1 (centres unmarked) [Compound 86] ) = 6.00 to 7.00

Reported pIC50 ( O=C(NCC(O)CN1CCc2ccccc2C1)c1cccc(-c2ccncc2)c1 (centres unmarked) [Compound 9] ) = > 7.00

Take each entry in turn and give its pIC50.
1. O=C(NC[C@H](O)CN1CCc2ccccc2C1)c1c[nH]c2ccccc12 [Compound 240]
2. O=C(NC[C@H](O)CN1CCc2ccccc2C1)c1cc(NC2CCNC2)ncn1 (some centres unmarked) [Compound 209]
3. O=C(NC[C@H](O)CN1CCc2ccccc2C1)c1cc(NC2CCNCC2)ncn1 [Compound 180]

["6.00 to 7.00", "> 7.00", "> 7.00"]

Take each entry in turn and give its pIC50.
1. O=C(NC[C@H](O)CN1CCc2ccccc2C1)c1ccnc(OC2CCN(CC(F)(F)F)CC2)c1 [Compound 203]
2. CN1CCC(c2cccc(C(=O)NCC(O)CN3CCc4ccccc4C3)c2)C1 (centres unmarked) [Compound 38]

["> 7.00", "> 7.00"]

---

Study target: PRMT5/MEP50 (Homo sapiens (Human), UniProt O14744)
Assay method text: PRMT5 Biochemical Assay (PRMT5/MEP50 enzyme assay on peptide substrate, 3H-SAM Flashplate)
Condition context: PRMT5/MEP50 biochemical assay; read-out: Biochemical IC50
What IC50 was measured for each of the following?

Reported IC50 ( O=C(NC[C@@H](O)CN1CCc2ccccc2C1)c1ccccc1 [Compound 4] ) = 1000 to 10000 nM

Reported IC50 ( NCCNc1cc(C(=O)NC[C@H](O)CN2CCc3ccccc3C2)ccn1 [Compound 320] ) = < 100 nM

Reported IC50 ( O=C(NCC(O)CN1CCc2ccccc2C1)c1ccc(F)c(NC2CCOCC2)c1 (stereo not drawn) [Compound 65] ) = < 100 nM

Reported IC50 ( CNCCNc1cc(C(=O)NC[C@H](O)CN2CCc3ccccc3C2)ccn1 [Compound 314] ) = < 100 nM

Reported IC50 ( O=C(NC[C@H](O)CN1CCc2ccccc2C1)c1cccc(NC2CCN(CC(F)(F)F)CC2)c1 [Compound 217] ) = < 100 nM

Reported IC50 ( CCOC(=O)CN1CCN(Cc2cccc(C(=O)NCC(O)CN3CCc4ccccc4C3)c2)CC1 (stereo not drawn) [Compound 165] ) = < 100 nM

Reported IC50 ( CS(=O)(=O)N1CCC(Nc2cc(C(=O)NC[C@H](O)CN3CCc4ccccc4C3)ccn2)C1 (stereo partly drawn) [Compound 227] ) = < 100 nM

Reported IC50 ( O=C(NC[C@H](O)CN1CCc2ccccc2C1)c1ccc2[nH]ccc2c1 [Compound 270] ) = 1000 to 10000 nM

Take each entry in turn and give its IC50.
1. O=C(NC[C@H](O)CN1CCc2ccccc2C1)c1c(O)ccc2ccccc12 [Compound 327]
2. CS(=O)(=O)N1CCC(Oc2cc(C(=O)NC[C@H](O)CN3CCc4ccccc4C3)ccn2)CC1 [Compound 204]
3. O=C(NCC(O)CN1CCc2ccccc2C1)c1ccc2c(c1)OCCN2 (stereo not drawn) [Compound 88]

["101 to 1000 nM", "< 100 nM", "101 to 1000 nM"]
